Source: PubChem BioAssay

assay: compound binding in COS7 lysate, probe aLAP1, primary screen, cell lysate, small-molecule microarray (AID 1124); settings: probe aLAP1, fluorescence, higher = more signal;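 also: lysate comes from COS7 cells expressing LAP1 and is applied at 0.3 µg/mL; score merges spot fluorescence near 667 nm with signal-to-noise over triplicate slides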
For each entry below, report its composite z-score value.
One number for each entry.

Compound	composite z-score
COCCCN1C(=O)[C@@]2(c3ccc([N+](=O)[O-])cc3)CC(=O)N(C3CCCCC3)[C@@H]2c2ccc(CO)cc21	-0.322
CN1C(=O)C2C=CC(C(O)C3CCCCC3)N(Nc3ccc([N+](=O)[O-])cc3[N+](=O)[O-])C2C1=O (stereo not drawn)	0.605
COc1ccc(C(O)C2C=CC3C(=O)NC(=O)C3N2Nc2ccccn2)c2ccccc12 (stereo not drawn)	-0.14
COC(=O)[C@@]1(Cc2ccccc2)[C@H]2c3cc(C(=O)N4CCCC4)n(Cc4nc5ccccc5[nH]4)c3C[C@H]2CN1C(=O)c1ccccc1	0.988
CCOC(=O)[C@H]1C/C=C/C[C@H](C(=O)OCC)C(=O)O[C@H]2[C@@H](OC)O[C@H](CO)[C@@H](OC(=O)Nc3ccc(C#N)cc3)[C@@H]2OC1=O	0.603
CC1CC/C=C\[C@H]2OC34C=CCN(C(C)(C)C)C(=O)[C@H]3N(CCCCCCO)C(=O)[C@@H]4C2C(=O)O1 (stereo partly drawn)	0.843
O=C1c2ccccc2[C@](Cc2ccccc2I)(C(=O)NC2CC2)[C@H](c2ccc(CO)cc2)N1Cc1ccccc1	0.478

Sample CCOC(=O)C1=CCC(c2ccccc2)N(S(=O)(=O)CC[Si](C)(C)C)C1 (stereo not drawn) — what was its composite z-score?
-0.0394
